# Test system: Trichophyton mentagrophytes 445
# Protocol Notes: In vitro antifungal broth microdilution test
# Format: cell-based
# Cond: Trichophyton mentagrophytes, 445; 120h, RPMI 1640, pH 7.0, 35 °C; read-out: MIC/IC80 TM
# Experimental: Fluconazole (FLU) was used as the standard of a clinically used antimycotic drug. The procedure was performed with twofold dilution of the compounds in […]., Prague, Czech Republic) buffered to pH 7.0 with 0.165 mol of 3-morpholino-propane-1-sulfonic acid (MOPS, Sigma, Germany). […] Drug-free controls were included. The MIC was defined as an 80% or greater (IC80) reduction of growth in comparison with the control.
Endpoint Label: MIC

Use these answered entries as a reference point.
O=C(O)c1c(O)c2ccccc2[nH]c1=O : > 500 µM
O=c1[nH]c2ccccc2c(O)c1[N+](=O)[O-] [Compound 5, 4-Hydroxy-3-nitroquinolin-2(1H)-one] : > 500 µM
Nc1c(O)c2ccccc2[nH]c1=O [Compound 6, 3-Amino-4-hydroxyquinolin-2(1H)-one] : > 500 µM
O=C(O)c1ccc(NC(=O)c2c(O)c3cc(C(=O)O)ccc3[nH]c2=O)cc1 : > 500 µM
O=C(O)c1ccc2[nH]c(=O)cc(O)c2c1O : > 500 µM
O=C(/C=C/c1ccccc1)Nc1c(O)c2ccccc2[nH]c1=O : > 125 µM
OC(Cn1cncn1)(Cn1cncn1)c1ccc(F)cc1F [FLU, Fluconazole, reference compound] : 3.91 µM
Cc1ccc2[nH]c(=O)cc(O)c2c1 [Compound 2, 4-Hydroxy-6-methylquinolin-2(1H)-one] : > 500 µM

What reported MIC corresponds to CCOC(=O)c1c(O)c2ccccc2[nH]c1=O on Trichophyton mentagrophytes 445?
> 500 µM

Form field: MIC recorded for O=C(O)c1cc2c(O)cc(=O)[nH]c2cc1O with Trichophyton mentagrophytes 445 (enter value)
> 500 µM

Please state recorded MIC (tested on Trichophyton mentagrophytes 445) of O=C(O)c1ccc2[nH]c(=O)c(/N=N/c3cc(Cl)c([N+](=O)[O-])cc3Cl)c(O)c2c1
125 µM
